In this section, each of the binders is paired with its reported RAMPO Score.
biological target: T1, P3028 (VFDEFKPLVEEPQNLIK, SEQ ID NO: 185), His-tagged (human); experiment: PEPSCAN ELISA; peptide on chip, His-P3028 added;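 further: peroxidase color development with ABTS and H2O2 substrate, OD405 imaged by CCD camera with image processing and taken as raw values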
T1 construct: Synthetic fragment of human serum albumin (positions 397-413); used in solution as His-tagged peptide PGE73; also called PGE73; not shown: His-tag
T1 peptide: VFDEFKPLVEEPQNLIK

# binder, display.unit, RAMPO Score
measured = [
    ("KKLDTFTVKLSLFTER [KKLDTFTVKLSLFTER (SEQ ID NO: 324)]", "rampo units", 517),
    ("KKLDYFFVKLSLFTER [KKLDYFFVKLSLFTER (SEQ ID NO: 312)]", "rampo units", 425),
    ("KKDDTFFVKLSLFTER [KKDDTFFVKLSLFTER (SEQ ID NO: 284)]", "rampo units", 492),
    ("AKLDTFFVKLSLFTER [AKLDTFFVKLSLFTER (SEQ ID NO: 268)]", "rampo units", 466),
    ("KKLDTFRVKLSLFTER [KKLDTFRVKLSLFTER (SEQ ID NO: 432)]", "rampo units", 369),
    ("KKLDTFSVKLSLFTER [KKLDTFSVKLSLFTER (SEQ ID NO: 323)]", "rampo units", 700),
    ("KKLDTFFVNLSLFTER (also called 31136) [KKLDTFFVNLSLFTER (SEQ ID NO: 518)]", "rampo units", 256),
    ("KKLDTFFVKLSLFTEF [KKLDTFFVKLSLFTEF (SEQ ID NO: 388)]", "rampo units", 297),
    ("KKLDTFFVKWSLFTER [KKLDTFFVKWSLFTER (SEQ ID NO: 482)]", "rampo units", 316),
    ("KKLDTFFVKLWLFTER [KKLDTFFVKLWLFTER (SEQ ID NO: 472)]", "rampo units", 324),
    ("KVLDTFFVKLSLFTER [KVLDTFFVKLSLFTER (SEQ ID NO: 481)]", "rampo units", 317),
    ("KKLDTFFVKLSLNTER [KKLDTFFVKLSLNTER (SEQ ID NO: 368)]", "rampo units", 862),
    ("KKLDTFFVKPSLFTER [KKLDTFFVKPSLFTER (SEQ ID NO: 338)]", "rampo units", 436),
    ("KKLDTFFVKLSLFVER [KKLDTFFVKLSLFVER (SEQ ID NO: 385)]", "rampo units", 380),
    ("KKLDTFFVKLMLFTER [KKLDTFFVKLMLFTER (SEQ ID NO: 346)]", "rampo units", 744),
    ("KKLDQFFVKLSLFTER [KKLDQFFVKLSLFTER (SEQ ID NO: 308)]", "rampo units", 535),
    ("KKLDTFFVKLSLFLER [KKLDTFFVKLSLFLER (SEQ ID NO: 380)]", "rampo units", 360),
    ("KKLDTFFVKLSLLTER [KKLDTFFVKLSLLTER (SEQ ID NO: 366)]", "rampo units", 448),
    ("KKLDTFFVKLSLFYER [KKLDTFFVKLSLFYER (SEQ ID NO: 514)]", "rampo units", 270),
    ("KKLDTFFVKLTLFTER [KKLDTFFVKLTLFTER (SEQ ID NO: 349)]", "rampo units", 520),
    ("KKLDTFFVKLELFTER [KKLDTFFVKLELFTER (SEQ ID NO: 532)]", "rampo units", 234),
    ("SKLDTFFVKLSLFTER [SKLDTFFVKLSLFTER (SEQ ID NO: 453)]", "rampo units", 344),
    ("KKLDTFFVKLSLFWER [KKLDTFFVKLSLFWER (SEQ ID NO: 386)]", "rampo units", 374),
    ("KKLDTFYVKLSLFTER [KKLDTFYVKLSLFTER (SEQ ID NO: 463)]", "rampo units", 334),
    ("KKLDTFFVKLSHFTER [KKLDTFFVKLSHFTER (SEQ ID NO: 351)]", "rampo units", 460),
    ("KKLDTFFPKLSLFTER (also called 32251) [KKLDTFFPKLSLFTER (SEQ ID NO: 329)]", "rampo units", 456),
    ("KKLDTFFVELSLFTER [KKLDTFFVELSLFTER (SEQ ID NO: 527)]", "rampo units", 240),
    ("KKLDTFFVKRSLFTER [KKLDTFFVKRSLFTER (SEQ ID NO: 340)]", "rampo units", 439),
    ("KKLDTQFVKLSLFTER [KKLDTQFVKLSLFTER (SEQ ID NO: 410)]", "rampo units", 410),
]
